test: Half life in lung was determined after intravenous administration to rats (n=4) at dose of 20 mg/kg; type: ADME, organism-based; parameters: dose 20 mg/kg, route intravenous; conditions: rat
ENDPOINT LABEL: half-life (min)
Please state the figure in min; there is no need to write the unit.

# compound Cc1c(N2C[C@@H](F)[C@@H](C3(N)CC3)C2)c(F)c(N)c2c(=O)c(C(=O)O)cn([C@@H]3C[C@@H]3F)c12 ; its half-life = 54

* * *

test system: Streptococcus mitis; experiment: Antibacterial activity was determined against Streptococcus mitis IID685 strain after incubation at 37 degrees C for 18 h; type: functional
Known MIC of a selection of compounds
Please state the figure in µg/mL; there is no need to write the unit.

| COMPOUND | SYSTEM NAME | UNIT STRING | MIC |
| --- | --- | --- | --- |
| N[C@@H]1[C@H]2CN(c3nc4c(cc3F)c(=O)c(C(=O)O)cn4-c3ccc(F)cc3F)C[C@@H]12 | Streptococcus mitis | µg/mL | 0.1 |
| Cc1c(N2CC[C@@H](CN)C2)c(F)c(N)c2c(=O)c(C(=O)O)cn(C3C[C@@H]3F)c12 (single isomer, unassigned) | Streptococcus mitis | µg/mL | 0.006 |
| COc1c(N2CCNC(C)C2)c(F)cc2c(=O)c(C(=O)O)cn(C3CC3)c12 (stereo not given) | Streptococcus mitis | µg/mL | 0.2 |
| O=C(O)c1cn(C2CC2)c2cc(N3CCNCC3)c(F)cc2c1=O | Streptococcus mitis | µg/mL | 0.78 |

Switching to the query record.
# compound COc1c(N2C[C@@H]3CCCN[C@@H]3C2)c(F)cc2c(=O)c(C(=O)O)cn(C3CC3)c12 ; its MIC = 0.1

* * *

system: Klebsiella pneumoniae; test: Antibacterial activity was determined against Klebsiella pneumoniae type II strain after incubation at 37 degrees C for 18 h; assay type: functional
ENDPOINT LABEL: MIC
# number then unit; no other words

| CHEMICAL STRING | MIC |
| --- | --- |
| Cc1c(N2C[C@H](C3(N)CC3)C(F)(F)C2)c(F)c(N)c2c(=O)c(C(=O)O)cn([C@@H]3C[C@@H]3F)c12 | 0.013 µg/mL |
| N[C@@H]1[C@H]2CN(c3nc4c(cc3F)c(=O)c(C(=O)O)cn4-c3ccc(F)cc3F)C[C@@H]12 | 0.025 µg/mL |

# MIC measured on Klebsiella pneumoniae for item Cc1c(N2CC[C@@H]([C@H](C)N)C2)c(F)c(N)c2c(=O)c(C(=O)O)cn([C@@H]3C[C@@H]3F)c12 = 0.025 µg/mL

* * *

tested on: Staphylococcus aureus; experiment: Antibacterial activity was determined against clinically isolated Levofloxacin-methicillin resistant Staphylococcus aureus (LVFX-r MRSA) strains (74 strains); format: functional
ENDPOINT LABEL: MIC90 (µg/mL)
Please state the figure in µg/mL; there is no need to write the unit.

| COMPOUND | SYSTEM NAME | UNIT STRING | ASSAY RESULT |
| --- | --- | --- | --- |
| CC(=O)N[C@@H]1[C@H](Oc2c3cc4cc2Oc2ccc(cc2Cl)[C@@H](O[C@@H]2O[C@@H](CO)[C@@H](O)[C@H](O)[C@@H]2NC(C)=O)[C@@H]2NC(=O)[C@H](NC(=O)[C@@H]4NC(=O)[C@H]4NC(=O)[C@@H](Cc5ccc(c(Cl)c5)O3)NC(=O)[C@H](N)c3ccc(O)c(c3)Oc3cc(O)cc4c3)c3ccc(O)c(c3)-c3c(O[C@H]4O[C@H](CO)[C@@H](O)[C@@H](O)[C@@H]4O)cc(O)cc3[C@@H](C(=O)O)NC2=O)O[C@@H](CO)[C@@H](O)[C@@H]1O | Staphylococcus aureus | µg/mL | 1 |

# compound COc1c(N2CCNC(C)C2)c(F)cc2c(=O)c(C(=O)O)cn(C3CC3)c12 (stereo not drawn) ; its MIC90 = 32

# compound Cc1c(N2C[C@@H](F)[C@@H](C3(N)CC3)C2)c(F)c(N)c2c(=O)c(C(=O)O)cn([C@@H]3C[C@@H]3F)c12 ; its MIC90 = 0.5

* * *

system: Enterococcus sp.; test: Antibacterial activity was determined against clinically isolated vancomycin-B resistant enterococci (VRE) strains (10 strains); format: functional
*1 amine or outer side, *2 acyl side, *3 side chain or, on linkers, in order; H or OH if unused. Where a SMILES comes first, the peptide text is derived from it. Bridges are numbered along the chain shown (N, C = ends). [ ]: non-standard residue; d: D form. The star is where a group is joined. X1 = O=C1C[C@@H](C(=O)[*:2])N([*:1])C[C@H]1CS[C@@H]1CN2CCC1CC2; NMePhe(4-NMe2) = CN[C@@H](Cc1ccc(N(C)C)cc1)C(=O)O; Picolinoyl(3-OH) = O=C(c1ncccc1O)*; Phg = N[C@H](C(=O)O)c1ccccc1; dAbu = CC[C@@H](N)C(=O)O
ENDPOINT LABEL: MIC50 (µg/mL)
Please state the figure in µg/mL; there is no need to write the unit.

Some compounds with recorded MIC50:
| COMPOUND | UNIT STRING | ASSAY RESULT |
| --- | --- | --- |
| NCC[C@H](O)C(=O)N[C@@H]1C[C@H](N)[C@@H](O[C@H]2O[C@H](CN)CC[C@H]2N)[C@H](O)[C@H]1O[C@H]1O[C@H](CO)[C@@H](O)[C@H](N)[C@H]1O | µg/mL | 32 |
| CC(=O)NCC1CN(c2ccc(N3CCOCC3)c(F)c2)C(=O)O1 (single isomer, unassigned) | µg/mL | 2 |

Switching to the query record.
# MIC50 measured on Enterococcus sp. for item CCN(CC)CCS(=O)(=O)[C@@H]1CCN2C(=O)c3coc(n3)CC(=O)C[C@H](O)/C=C(C)/C=C/CNC(=O)/C=C/[C@@H](C)[C@@H](C(C)C)OC(=O)[C@@H]12.CC[C@H]1NC(=O)[C@@H](NC(=O)c2ncccc2O)[C@@H](C)OC(=O)[C@H](c2ccccc2)NC(=O)[C@@H]2CC(=O)[C@H](CS[C@@H]3CN4CCC3CC4)CN2C(=O)[C@H](Cc2ccc(N(C)C)cc2)N(C)C(=O)[C@@H]2CCCN2C1=O [QUINUPRISTIN/DALFOPRISTIN] ({Picolinoyl(3-OH)}-T[dAbu]P[NMePhe(4-NMe2)][X1][Phg]; ester 1-C) = 0.5

* * *

assay: Liver concentration was determined after 5 min. of intravenous administration to rats (n=4) at dose of 20 mg/kg; format: ADME, organism-based; design: dose 20 mg/kg, route intravenous; details: rat
ENDPOINT LABEL: concentration at 5 min
# number then unit; no other words

# compound Cc1c(N2C[C@@H](F)[C@@H](C3(N)CC3)C2)c(F)c(N)c2c(=O)c(C(=O)O)cn([C@@H]3C[C@@H]3F)c12 [DQ-113] ; its concentration at 5 min = 46200 ng/mL

* * *

tested on: Streptococcus pyogenes; test: Antibacterial activity was determined against Streptococcus pyogenes G-36 strain after incubation at 37 degrees C for 18 h; format: functional
Known MIC of a selection of compounds
Please state the figure in µg/mL; there is no need to write the unit.

Some compounds with recorded MIC:
| COMPOUND | MIC (µg/mL) |
| --- | --- |
| Cc1c(N2CC[C@@H](CN)C2)c(F)c(N)c2c(=O)c(C(=O)O)cn(C3C[C@@H]3F)c12 (single isomer, unassigned) | 0.013 |
| N[C@@H]1[C@H]2CN(c3nc4c(cc3F)c(=O)c(C(=O)O)cn4-c3ccc(F)cc3F)C[C@@H]12 | 0.2 |

# compound O=C(O)c1cn(C2CC2)c2cc(N3CCNCC3)c(F)cc2c1=O ; its MIC = 1.56

# compound COc1c(N2C[C@@H]3CCCN[C@@H]3C2)c(F)cc2c(=O)c(C(=O)O)cn(C3CC3)c12 ; its MIC = 0.2

# compound COc1c(N2CCNC(C)C2)c(F)cc2c(=O)c(C(=O)O)cn(C3CC3)c12 (stereo not given) ; its MIC = 0.39

* * *

Known MIC of a selection of compounds
system: Escherichia coli; assay: Antibacterial activity was determined against Escherichia coli NIHJ strain after incubation at 37 degrees C for 18 h; type: functional

Some compounds with recorded MIC:
| COMPOUND | ASSAY RESULT |
| --- | --- |
| Cc1c(N2CC[C@@H]([C@H](C)N)C2)c(F)c(N)c2c(=O)c(C(=O)O)cn([C@@H]3C[C@@H]3F)c12 | ≤ 3 ng/mL |
| COc1c(N2CCNC(C)C2)c(F)cc2c(=O)c(C(=O)O)cn(C3CC3)c12 (stereo unspecified) | 6 ng/mL |
| Cc1c(N2C[C@H](F)[C@@H](C3(N)CC3)C2)c(F)c(N)c2c(=O)c(C(=O)O)cn([C@@H]3C[C@@H]3F)c12 | ≤ 3 ng/mL |
| Cc1c(N2C[C@@H](F)[C@@H](C3(N)CC3)C2)c(F)c(N)c2c(=O)c(C(=O)O)cn([C@@H]3C[C@@H]3F)c12 | ≤ 3 ng/mL |
| N[C@@H]1[C@H]2CN(c3nc4c(cc3F)c(=O)c(C(=O)O)cn4-c3ccc(F)cc3F)C[C@@H]12 | ≤ 3 ng/mL |

# compound O=C(O)c1cn(C2CC2)c2cc(N3CCNCC3)c(F)cc2c1=O ; its MIC = ≤ 3 ng/mL
